# PROTOCOL: Antiproliferative activity against human CCD-1095SK cells after 96 hrs by crystal violet staining method
# Format: cell-based
# MEASUREMENT_SETUP: ccd-1095sk, 96 h, read-out: ED50 (the source's name)

MOLECULE	GI50 (µM)
O[C@@H]1[C@@H](O)[C@H](Oc2ccc3ccccc3c2)OC[C@H]1O (stereo in doubt; 1b)	243

====

# Tested on: HCC70
# PROTOCOL: Antiproliferative activity against human HCC70 cells after 96 hrs by crystal violet staining method
# Format: functional
# MEASUREMENT_SETUP: Homo sapiens, HCC70, 96 h; read-out: ED50 (the source's name)

CHEMICAL_SMILES	TARGET_SYSTEM	EC50 [µM]
O[C@H]1[C@H](Oc2ccc3ccccc3c2)OC[C@@H](O)[C@H]1O	HCC70	178
O[C@@H]1[C@@H](O)[C@H](Oc2ccc3ccccc3c2)OC[C@@H]1O	HCC70	371
O[C@H]1[C@H](Oc2ccc3ccccc3c2)OC[C@@H](O)[C@@H]1F	HCC70	94
O[C@H]1[C@H](Oc2ccc3ccccc3c2)OCC[C@@H]1O	HCC70	284
O[C@@H]1CO[C@@H](Oc2ccc3ccccc3c2)C[C@H]1O	HCC70	228
